tested on: SN12C renal; experiment: NCI tumour cell line growth inhibition, 48 h; in the data active = GI50 below about 0.43 µM; inactive = the rest
// allowed return values: active, inactive

O=C1C=C(NCCNC(=S)Nc2ccccc2)c2nccc3c2c1nc1ccccc13 : inactive
CCc1n(Cc2ccc3ccccc3n2)cc[n+]1Cc1ccc2ccccc2n1 : active
COc1ccc2c(c1)/C(=C\c1cccnc1)C(=O)N2 : inactive

Q: Lab log entry: C=C1SC(=Nc2c(C)cc(C)cc2C)N(C(=O)c2sc3ccccc3c2Cl)C12CCCCC2 — outcome as called in the assay?
Ans: inactive

Q: Dear colleague, could you share the recorded outcome for CC(C)CNCC(O)COc1ccc(C(C)(C)c2ccc(OCC(O)CNCC(C)C)cc2)cc1 (stereo not drawn) when you have a moment?
Ans: inactive

Q: Each molecule tested received a call. Report the one for Cc1cc(/C=C\c2ccc3ccccc3[n+]2C)c(O)c2ncccc12 .
Ans: active

Q: Per the assay record, what outcome was assigned to CC1(C)CC[C@H](Nc2ncc(C(F)(F)F)c(-c3c[nH]c4c(P(C)(C)=O)c(C#N)ccc34)n2)CN1 ?
Ans: active

Q: State the result this test recorded for CCn1c(C(=O)N(C2CC2)C2CC2)cc2c3c(ncn3C)c(Nc3cc(C)n(C)n3)nc21 .
Ans: inactive

Q: Hey, what did the test say about COc1cc2c(c(OC)c1OC)-c1ccc(N)c(=O)cc1[C@@H](NC(C)=O)CC2 ?
Ans: active

Q: Can you look up the reported call for COc1cc(/C=C2\CCC/C(=C\c3cc(OC)c(O)c(OC)c3)C2=O)cc(OC)c1O for me?
Ans: inactive

Q: Name the outcome recorded for CN(C)c1ccc([O-])cc1.CN(C)c1ccc([O-])cc1.CN(C)c1ccc([O-])cc1.CN(C)c1ccc([O-])cc1.[Ti+4] in the assay.
Ans: inactive

Q: Write down the call the test reported for this molecule. Item: O=C1C(c2c[nH]c3ccccc23)=C(c2c[nH]c3ccccc23)C(=O)N1O
Ans: inactive

Q: Tell me the recorded outcome of this test for CCCc1c(CC)c(=N)c2ccccc2n1C .
Ans: inactive
